Literature roundup of Insulin-like growth factor 1 receptor (Homo sapiens, UniProt P08069) data, read-out IC50.
readout-label: IC50 (nM)

In [3]: df
Out[3]:
                                   molecule  reported
0  COc1cc(Nc2ncc(Br)c(Nc3ccc(-c4ccc(C)cn4)cc3P(C)(C)=O)n2)c(C)cc1N1CCOCC1       106

P: Cc1cc(NC(=O)/C=C/CN(C)C)cc(Nc2ncc(Br)c(Nc3ccc4ccccc4c3)n2)c1
Q: O=C1CCCN1C1CC(c2cccc(-c3ccc(C(F)(F)F)cc3)c2)N2CCc3cccc1c32 (centres unmarked)
R: CC(C)c1ccc(C2CC(N3CCCC3=O)c3cccc4c3N2CC4)cc1 (centres unmarked)
List these items ordered by IC50, big to small. Reply format: the labels, ordered as requested.
Q, R, P
(Q: 7400 nM, R: 2000 nM, P: 127 nM)

----------
pIC50: −log10 of the molar value.
Literature roundup of Insulin-like growth factor 1 receptor (Homo sapiens, UniProt P08069) data, read-out pIC50.

In [3]: df
Out[3]:
                                   compound                             tested_target  readout_label  reported
0  NCC1CC(n2cc(-c3ccc4ccn(Cc5ccccc5)c4c3)c3c(N)ncnc32)C1 (stereo not drawn)  Insulin-like growth factor 1 receptor (Homo sapiens, UniProt P08069)          pIC50      5.80
1  CN1CCC(N2Cc3cc4nc(-c5c(NC[C@@H](O)COc6cc(C(F)(F)F)ccc6Cl)cc[nH]c5=O)[nH]c4cc3C2=O)CC1  Insulin-like growth factor 1 receptor (Homo sapiens, UniProt P08069)          pIC50    > 6.30
2  Cc1ccc(Cl)c(OC[C@H](O)CNc2cc[nH]c(=O)c2-c2nc3cc4c(cc3[nH]2)C(=O)N(C2CCN(C)CC2)C4)c1F  Insulin-like growth factor 1 receptor (Homo sapiens, UniProt P08069)          pIC50    > 6.30

Reported pIC50, compound `CCc1cc(Nc2ncc(Br)c(Nc3ccc(-c4ccc(C)nn4)cc3P(C)(C)=O)n2)c(OC)cc1N1CCC(N2CCN(C)CC2)CC1` : ____
6.75

Same read-out for `COc1ccc(OC[C@H](O)CNc2cc[nH]c(=O)c2-c2nc3cc4c(cc3[nH]2)C(=O)N(C2CCN(C)CC2)C4=O)c(OC)c1OC` ?
> 6.30

Same read-out for `COc1c(F)c(-c2ccccc2)nc2c(F)c(-c3nn([C@H]4C[C@@](C)(O)C4)c(N)c3C(N)=O)ccc12` ?
≥ 7.00

----------
pIC50: −log10 of the molar value.
Literature roundup of UniProtKB P08069 data, read-out pIC50.
readout-label: pIC50

                                   compound  readout_label  reported
0  NCC1CC(n2cc(-c3ccc(N)cc3)c3c(N)ncnc32)C1 (stereo not shown)          pIC50      5.64

I: COc1cc(N2CCN(C)CC2)c(C)cc1Nc1ncc(Br)c(Nc2ccc(-c3nccs3)cc2P(C)(C)=O)n1
II: C#Cc1ccc2c(P(C)(C)=O)c(Nc3nc(Nc4cc(CC)c(N5CCC(N6CCN(C)CC6)CC5)cc4OC)ncc3Br)ccc2n1
III: CCc1ccc(C2CC(N3CCCC3=O)c3cccc4c3N2CC4)cc1 (stereo not shown)
IV: C#Cc1ccc2c(P(C)(C)=O)c(Nc3nc(Nc4cc(OC)c(N5CCC(N6CCN(C)CC6)CC5)cc4C)ncc3Br)ccc2n1
V: CCc1cc(Nc2ncc(Br)c(Nc3ccc(-c4ccccc4C)cc3P(C)(C)=O)n2)c(OC)cc1N1CCC(N2CCOCC2)CC1
List these items ordered by pIC50, big to small. Reply format: the labels, ordered as requested.
IV, II, I, V, III
